- Test system: 653999-131-R-J2-PDC complex spheroids, growth inhibition
- protocol.details: Anticancer human tumor 653999-131-R-J2-PDC patient-derived lung adenocarcinoma cell line growth inhibition [RAS]
- experimental.context: second compound 0.0949 µM; first compound 3.16 µM; hits give low values
endpoint.label: viability, T/C (%)
One number for each entry, in %.

{"compound": "CCC(CC)c1cc(NC2CCC(N)C2)n2nccc2n1 (configuration not stated) + CCn1c(-c2cc(N3CCN(C)CC3)cnc2C(C)OC)c2c3cc(ccc31)-c1csc(n1)CC(NC(=O)C1CC1C)C(=O)N1CCCC(N1)C(=O)OCC(C)(C)C2", "experimental.target": "653999-131-R-J2-PDC complex spheroids, growth inhibition", "value.units": "%", "viability, T/C": 11.7}
{"compound": "CC(C)NCC(C(=O)N1CCN(c2ncnc3c2C(C)CC3O)CC1)c1ccc(Cl)cc1 (configuration not stated) + CCn1c(-c2cccnc2C(C)OC)c2c3cc(ccc31)N1CCOC(CC(NC(=O)C(C(C)C)N(C)C(=O)C3(F)CCN(C(=O)C#CC(C)(C)N(C)C)CC3)C(=O)N3CCCC(N3)C(=O)OCC(C)(C)C2)C1", "experimental.target": "653999-131-R-J2-PDC complex spheroids, growth inhibition", "value.units": "%", "viability, T/C": 39.9}
{"compound": "CC(Nc1ccc2c(c1)OCCn1cc(N3C(=O)OCC3C(F)F)nc1-2)C(N)=O (configuration not stated) + CCn1c(-c2cccnc2C(C)OC)c2c3cc(ccc31)N1CCOC(CC(NC(=O)C(C(C)C)N(C)C(=O)C3(F)CCN(C(=O)C#CC(C)(C)N(C)C)CC3)C(=O)N3CCCC(N3)C(=O)OCC(C)(C)C2)C1", "experimental.target": "653999-131-R-J2-PDC complex spheroids, growth inhibition", "value.units": "%", "viability, T/C": 29.3}

Count: 2. Required value per item: viability, T/C.
1. Cc1nc(N2CCC3(CC2)COC(C)C3N)c(CO)nc1Sc1ccnc(N)c1Cl (configuration not stated) + CCn1c(-c2cccnc2C(C)OC)c2c3cc(ccc31)N1CCOC(CC(NC(=O)C(C(C)C)N(C)C(=O)C3(F)CCN(C(=O)C#CC(C)(C)N(C)C)CC3)C(=O)N3CCCC(N3)C(=O)OCC(C)(C)C2)C1
2. CC(=O)OC12COC1CC(O)C1(C)C(=O)C(O)C3=C(C)C(OC(=O)C(O)C(NC(=O)OC(C)(C)C)c4ccccc4)CC(O)(C(OC(=O)c4ccccc4)C21)C3(C)C (configuration not stated) + CCn1c(-c2cc(N3CCN(C)CC3)cnc2C(C)OC)c2c3cc(ccc31)-c1csc(n1)CC(NC(=O)C1CC1C)C(=O)N1CCCC(N1)C(=O)OCC(C)(C)C2

1: 94.4; 2: 12.6

Count: 7. Required value per item: viability, T/C.
1. Cc1nc(N2CCC3(CC2)COC(C)C3N)c(CO)nc1Sc1ccnc(N)c1Cl (configuration not stated) + CCn1c(-c2cc(N3CCN(C)CC3)cnc2C(C)OC)c2c3cc(ccc31)-c1csc(n1)CC(NC(=O)C1CC1C)C(=O)N1CCCC(N1)C(=O)OCC(C)(C)C2
2. CC(Nc1ccc2c(c1)OCCn1cc(N3C(=O)OCC3C(F)F)nc1-2)C(N)=O (configuration not stated) + CCn1c(-c2cc(N3CCN(C)CC3)cnc2C(C)OC)c2c3cc(ccc31)-c1csc(n1)CC(NC(=O)C1CC1C)C(=O)N1CCCC(N1)C(=O)OCC(C)(C)C2
3. CCC(CC)c1cc(NC2CCC(N)C2)n2nccc2n1 (configuration not stated) + CCn1c(-c2cccnc2C(C)OC)c2c3cc(ccc31)N1CCOC(CC(NC(=O)C(C(C)C)N(C)C(=O)C3(F)CCN(C(=O)C#CC(C)(C)N(C)C)CC3)C(=O)N3CCCC(N3)C(=O)OCC(C)(C)C2)C1
4. CC(C)NCC(C(=O)N1CCN(c2ncnc3c2C(C)CC3O)CC1)c1ccc(Cl)cc1 (configuration not stated) + CCn1c(-c2cc(N3CCN(C)CC3)cnc2C(C)OC)c2c3cc(ccc31)-c1csc(n1)CC(NC(=O)C1CC1C)C(=O)N1CCCC(N1)C(=O)OCC(C)(C)C2
5. CC1(O)CCCC1n1c(=O)c(C(F)F)cc2cnc(NC3CCN(S(C)(=O)=O)CC3)nc21 (configuration not stated) + CCn1c(-c2cccnc2C(C)OC)c2c3cc(ccc31)N1CCOC(CC(NC(=O)C(C(C)C)N(C)C(=O)C3(F)CCN(C(=O)C#CC(C)(C)N(C)C)CC3)C(=O)N3CCCC(N3)C(=O)OCC(C)(C)C2)C1
6. CC1(O)CCCC1n1c(=O)c(C(F)F)cc2cnc(NC3CCN(S(C)(=O)=O)CC3)nc21 (configuration not stated) + CCn1c(-c2cc(N3CCN(C)CC3)cnc2C(C)OC)c2c3cc(ccc31)-c1csc(n1)CC(NC(=O)C1CC1C)C(=O)N1CCCC(N1)C(=O)OCC(C)(C)C2
7. CC(=O)OC12COC1CC(O)C1(C)C(=O)C(O)C3=C(C)C(OC(=O)C(O)C(NC(=O)OC(C)(C)C)c4ccccc4)CC(O)(C(OC(=O)c4ccccc4)C21)C3(C)C (configuration not stated) + CCn1c(-c2cccnc2C(C)OC)c2c3cc(ccc31)N1CCOC(CC(NC(=O)C(C(C)C)N(C)C(=O)C3(F)CCN(C(=O)C#CC(C)(C)N(C)C)CC3)C(=O)N3CCCC(N3)C(=O)OCC(C)(C)C2)C1

11
8.97
12
9.85
85.9
26.7
61

* * *

- Test system: 653999-131-R-J2-PDC complex spheroids, growth inhibition
- protocol.details: Anticancer human tumor 653999-131-R-J2-PDC cell line growth inhibition [RAS];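 further: spheroids exposed to the agents for seven days before the readout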
- experimental.context: second compound 1 µM; first compound 0.316 µM; hits give low values
Please use fulfilled for viability, T/C under 60% and not fulfilled for everything else, ties included.

{"compound": "Nc1ccn(C2OC(CO)C(O)C2(F)F)c(=O)n1 (stereo unspecified) + C#Cc1c(F)ccc2cc(O)cc(-c3ncc4c(N5CC6CCC(C5)N6)nc(OCC56CCCN5CC(F)C6)nc4c3F)c12", "class.name": "fulfilled"}
{"compound": "CC(C)NCC(C(=O)N1CCN(c2ncnc3c2C(C)CC3O)CC1)c1ccc(Cl)cc1 (stereo unspecified) + C=CC(=O)N1CCN(c2nc(OCC3CCCN3C)nc3c(F)c(-c4nc(N)cc(C)c4C(F)(F)F)c(Cl)cc23)C(C)C1", "class.name": "not fulfilled"}
{"compound": "CCN1CCN(Cc2ccc(Nc3ncc(F)c(-c4cc(F)c5nc(C)n(C(C)C)c5c4)n3)nc2)CC1 + C=CC(=O)N1CCN(c2nc(OCC3CCCN3C)nc3c(F)c(-c4nc(N)cc(C)c4C(F)(F)F)c(Cl)cc23)C(C)C1", "class.name": "not fulfilled"}

Does CC(=O)OC12COC1CC(O)C1(C)C(=O)C(O)C3=C(C)C(OC(=O)C(O)C(NC(=O)OC(C)(C)C)c4ccccc4)CC(O)(C(OC(=O)c4ccccc4)C21)C3(C)C (stereo unspecified) + C=CC(=O)N1CCN(c2nc(OCC3CCCN3C)nc3c(F)c(-c4nc(N)cc(C)c4C(F)(F)F)c(Cl)cc23)C(C)C1 have viability, T/C strictly under 60%?
not fulfilled

Follow-up item: C=CC(=O)N1CCN(c2nc(OCC3CCCN3C)nc3c(F)c(-c4nc(N)cc(C)c4C(F)(F)F)c(Cl)cc23)C(C)C1 (stereo unspecified) + C#Cc1c(F)ccc2cc(O)cc(-c3ncc4c(N5CC6CCC(C5)N6)nc(OCC56CCCN5CC(F)C6)nc4c3F)c12
fulfilled

* * *

- System: 653999-131-R-J2-PDC complex spheroids, growth inhibition
- protocol.details: Anticancer human tumor 653999-131-R-J2-PDC cell line growth inhibition [RAS];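 further: spheroids exposed to the agents for seven days before the readout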
- experimental.context: second compound 0.00949 µM; first compound 0.0316 µM; hits give low values
Give measured viability, T/C for each item. Keep answers brief.
Numbers only, in %.

# count of solved cases: 8
{"compound": "CC(Nc1ccc2c(c1)OCCn1cc(N3C(=O)OCC3C(F)F)nc1-2)C(N)=O (centres undefined) + CCn1c(-c2cccnc2C(C)OC)c2c3cc(ccc31)N1CCOC(CC(NC(=O)C(C(C)C)N(C)C(=O)C3(F)CCN(C(=O)C#CC(C)(C)N(C)C)CC3)C(=O)N3CCCC(N3)C(=O)OCC(C)(C)C2)C1", "experimental.target": "653999-131-R-J2-PDC complex spheroids, growth inhibition", "value.units": "%", "viability, T/C": 99.2}
{"compound": "C=CC(=O)Nc1cc(Nc2nccc(-c3cn(C)c4ccccc34)n2)c(OC)cc1N(C)CCN(C)C + CCn1c(-c2cccnc2C(C)OC)c2c3cc(ccc31)N1CCOC(CC(NC(=O)C(C(C)C)N(C)C(=O)C3(F)CCN(C(=O)C#CC(C)(C)N(C)C)CC3)C(=O)N3CCCC(N3)C(=O)OCC(C)(C)C2)C1", "experimental.target": "653999-131-R-J2-PDC complex spheroids, growth inhibition", "value.units": "%", "viability, T/C": 93.2}
{"compound": "Cc1nc(N2CCC3(CC2)COC(C)C3N)c(CO)nc1Sc1ccnc(N)c1Cl (centres undefined) + CCn1c(-c2cc(N3CCN(C)CC3)cnc2C(C)OC)c2c3cc(ccc31)-c1csc(n1)CC(NC(=O)C1CC1C)C(=O)N1CCCC(N1)C(=O)OCC(C)(C)C2", "experimental.target": "653999-131-R-J2-PDC complex spheroids, growth inhibition", "value.units": "%", "viability, T/C": 43.1}
{"compound": "CC1(O)CCCC1n1c(=O)c(C(F)F)cc2cnc(NC3CCN(S(C)(=O)=O)CC3)nc21 (centres undefined) + CCn1c(-c2cccnc2C(C)OC)c2c3cc(ccc31)N1CCOC(CC(NC(=O)C(C(C)C)N(C)C(=O)C3(F)CCN(C(=O)C#CC(C)(C)N(C)C)CC3)C(=O)N3CCCC(N3)C(=O)OCC(C)(C)C2)C1", "experimental.target": "653999-131-R-J2-PDC complex spheroids, growth inhibition", "value.units": "%", "viability, T/C": 97.2}
{"compound": "CCN1CCN(Cc2ccc(Nc3ncc(F)c(-c4cc(F)c5nc(C)n(C(C)C)c5c4)n3)nc2)CC1 + CCn1c(-c2cccnc2C(C)OC)c2c3cc(ccc31)N1CCOC(CC(NC(=O)C(C(C)C)N(C)C(=O)C3(F)CCN(C(=O)C#CC(C)(C)N(C)C)CC3)C(=O)N3CCCC(N3)C(=O)OCC(C)(C)C2)C1", "experimental.target": "653999-131-R-J2-PDC complex spheroids, growth inhibition", "value.units": "%", "viability, T/C": 64.8}
{"compound": "C[C@@H](NC(=O)c1ncnc(N)c1Cl)c1ncc(C(=O)Nc2cc(C(F)(F)F)c(Cl)cn2)s1 + CCn1c(-c2cccnc2C(C)OC)c2c3cc(ccc31)N1CCOC(CC(NC(=O)C(C(C)C)N(C)C(=O)C3(F)CCN(C(=O)C#CC(C)(C)N(C)C)CC3)C(=O)N3CCCC(N3)C(=O)OCC(C)(C)C2)C1", "experimental.target": "653999-131-R-J2-PDC complex spheroids, growth inhibition", "value.units": "%", "viability, T/C": 113}
{"compound": "CC1(O)CCCC1n1c(=O)c(C(F)F)cc2cnc(NC3CCN(S(C)(=O)=O)CC3)nc21 (centres undefined) + CCn1c(-c2cc(N3CCN(C)CC3)cnc2C(C)OC)c2c3cc(ccc31)-c1csc(n1)CC(NC(=O)C1CC1C)C(=O)N1CCCC(N1)C(=O)OCC(C)(C)C2", "experimental.target": "653999-131-R-J2-PDC complex spheroids, growth inhibition", "value.units": "%", "viability, T/C": 43}
{"compound": "CC(Nc1ccc2c(c1)OCCn1cc(N3C(=O)OCC3C(F)F)nc1-2)C(N)=O (centres undefined) + CCn1c(-c2cc(N3CCN(C)CC3)cnc2C(C)OC)c2c3cc(ccc31)-c1csc(n1)CC(NC(=O)C1CC1C)C(=O)N1CCCC(N1)C(=O)OCC(C)(C)C2", "experimental.target": "653999-131-R-J2-PDC complex spheroids, growth inhibition", "value.units": "%", "viability, T/C": 37.8}

Returns the measured viability, T/C for the input compound. Input: CC(C)NCC(C(=O)N1CCN(c2ncnc3c2C(C)CC3O)CC1)c1ccc(Cl)cc1 (centres undefined) + CCn1c(-c2cc(N3CCN(C)CC3)cnc2C(C)OC)c2c3cc(ccc31)-c1csc(n1)CC(NC(=O)C1CC1C)C(=O)N1CCCC(N1)C(=O)OCC(C)(C)C2
49.7
